All values here come from patent US11254686B1.

# TESTED TARGET: adenosine A2A receptor (Homo sapiens (Human))
# Sequence (P29274 whole entry): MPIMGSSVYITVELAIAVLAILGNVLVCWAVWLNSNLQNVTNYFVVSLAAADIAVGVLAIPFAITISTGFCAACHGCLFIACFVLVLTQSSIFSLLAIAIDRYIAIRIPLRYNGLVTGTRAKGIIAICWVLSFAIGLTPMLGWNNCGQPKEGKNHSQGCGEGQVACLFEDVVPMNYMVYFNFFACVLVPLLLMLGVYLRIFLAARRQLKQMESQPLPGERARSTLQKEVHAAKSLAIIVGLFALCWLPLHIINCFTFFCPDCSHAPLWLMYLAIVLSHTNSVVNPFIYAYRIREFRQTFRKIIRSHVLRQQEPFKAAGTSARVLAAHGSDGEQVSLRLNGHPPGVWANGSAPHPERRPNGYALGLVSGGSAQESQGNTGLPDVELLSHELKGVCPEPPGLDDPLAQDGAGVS
# EXPERIMENT SUMMARY: Adenosine receptor activity assay (Table 1), A2A activity
# Type: biochemical
# APPLIED CONDITIONS: read-out: Ave A2A cAMP IC50
MEASURED ENDPOINT: IC50

C[C@H](Nc1nc(C(=O)N2CC(CNC(=O)C(C)(C)C)C2)c2sccc2n1)c1cncc(F)c1 [Example Z529] = 100 to 500 nM

Given the entry CO[C@H]1C[C@@H](NC(=O)c2nc(N[C@@H](C)c3cccnc3)nc3ccsc23)C1 [Example Z296] , what IC50 was observed with adenosine A2A receptor (Homo sapiens (Human))?
100 to 500 nM

Okay, and O=C(c1nc(NCc2cncc(F)c2)nc2ccsc12)N1CC[C@@H](O)C1 [Example Z66] ?
100 to 500 nM

Follow-up entry: Cc1cc2nc(N[C@@H](C)c3cccnc3)nc(C(=O)NCCN3CCOCC3)c2s1 [Example Z378]
> 500 nM

Next entry: Cc1csc2c(C(=O)N3CCCC3)nc(N[C@@H](C)c3ccccn3)nc12 [Example Z459]
10 to 50 nM

Likewise for COc1ccc(CNC(=O)c2nc(N[C@@H](C)c3cccnc3)nc3ccsc23)cc1OC [Example Z33] ?
> 500 nM

Would you mind doing CCOc1ccc(CNC(=O)c2nc(N[C@@H](C)c3ccccn3)nc3ccsc23)cn1 [Example Z170] as well?
50 to 100 nM

Continue with COC[C@H]1CCN1C(=O)c1nc(N[C@@H](C)c2cncc(F)c2)nc2cc(C)sc12 [Example Z570]
> 500 nM

Moving on to the next compound: CCNC(=O)c1nc(N[C@@H](C)c2ccccn2)nc2ccsc12 [Example Z111]
50 to 100 nM
